The reported measurements were obtained from ChEMBL document CHEMBL1201862.

tested on: RPMI-8226; experiment: NCI tumour cell line growth inhibition, 48 h
Calls of active or inactive are those of the source. No stated cut-off is given here; in the data, active = GI50 up to about 1.1 µM and inactive = higher.
Lab note: assign the record to one of true (1) for active, false (0) for inactive

Some solved entries appear below for comparison.
N#Cc1nc(C#N)n(C(=O)c2ccccc2)c1NC(=O)c1ccccc1
false (0)
CC(Oc1ccc(Cl)cc1Cl)C(=O)NN1C(=O)CC(=O)N(c2ccccc2)C1=S (centres undefined)
false (0)
CCOC(=O)c1nc2ccc(Cl)cc2c2c1Cc1ccccc1-2
false (0)

Hello, I am checking results. What call was entered for COc1ccc(C#CCC(OC2OC(CO)C(O)C(O)C2O)C(O)c2ccc(OC)c(OC)c2)cc1OC (centres undefined) ?
false (0)

Hello, I am checking results. What call was entered for `Cc1n[nH]c(=O)n1N=C(c1ccccc1)c1ccccc1` ?
false (0)

Hello, I am checking results. What call was entered for Fc1ccccc1C1SCC2=Nc3ccccc3CN21 (centres undefined) ?
false (0)

Hello, I am checking results. What call was entered for `O=C(CSc1nnc(Cc2ccccc2)o1)Nc1ccc(Cl)cc1` ?
false (0)

Hello, I am checking results. What call was entered for `N=C(N)SCCN1CCCCC1` ?
false (0)

Hello, I am checking results. What call was entered for `CCOC(=O)C(NC(=O)OC(C)(C)C)C(=O)OCC` ?
false (0)

Hello, I am checking results. What call was entered for O=c1c(-c2ccc(O)cc2)coc2cc(OC3OC(CO)C(O)C(O)C3O)cc(O)c12 (centres undefined) ?
false (0)

Hello, I am checking results. What call was entered for `CCn1cnnc1-c1nsc2ccccc12` ?
false (0)

Hello, I am checking results. What call was entered for CC1(CO)OC(n2cnc3cncnc32)CC1O (centres undefined) ?
false (0)
